Values from PubChem BioAssay (NCI)

# Tested on: OVCAR-5 ovarian
# procedure text: NCI tumour cell line growth inhibition, 48 h
The following molecules are listed with their measured TGI values.

{"molecule": "O=C(O)c1cc2ccccc2c(N=Nc2ccc(S(=O)(=O)O)cc2)c1O", "TGI": "> 100 µM"}
{"molecule": "OCCN1c2ccccc2Sc2ccccc21", "TGI": "> 10 µM"}
{"molecule": "COc1cc(Nc2cnc3cc(N)ccc3n2)cc(OC)c1OC", "TGI": "> 100 µM"}
{"molecule": "N#CCCOc1cccc(C2(N3CCCCC3)CCCCC2)c1", "TGI": "> 100 µM"}
{"molecule": "COC(=O)c1cc(-c2ccc(OC)c(OC)c2)oc1-c1ccc(OC)c(OC)c1", "TGI": "> 100 µM"}
{"molecule": "CCOC(=O)COc1ccc(OCC(=O)OCC)c2c1C(=O)CCCC2=O", "TGI": "> 100 µM"}
{"molecule": "COc1ccc2c(c1)CC[C@@H]1[C@@H]2CC[C@]2(C)C(=O)/C(=C/c3ccc(C#N)cc3)C[C@@H]12", "TGI": "> 100 µM"}
{"molecule": "C/C(=N\\O)c1ccc2cc(Br)c3ccccc3c2c1", "TGI": "25.8 µM"}
{"molecule": "O=C(NCCCCNC(=O)OCc1ccc2c(Cl)cc(Cl)c(O)c2n1)OCc1ccc2c(Cl)cc(Cl)c(O)c2n1", "TGI": "> 100 µM"}
{"molecule": "N#C/C(=C\\c1cc(F)cc(F)c1)c1ccccn1", "TGI": "> 100 µM"}
{"molecule": "CCCCCCCCc1cc[n+](CC(=O)c2ccc(Br)cc2)cc1", "TGI": "2.9 µM"}
{"molecule": "COc1ccc2nc(NNC(=O)c3cnccn3)c3cccn3c2c1", "TGI": "> 100 µM"}
{"molecule": "NN/C(=N\\S(=O)(=O)c1cc2ccccc2o1)Nc1ccc(Cl)cc1", "TGI": "> 100 µM"}
{"molecule": "COP(C)(=O)C1=CCN(C(=O)OCC[Si](C)(C)C)CC1 (centres undefined)", "TGI": "> 100 µM"}
{"molecule": "COc1ccc(-c2cc(-c3ccccc3)nc(/N=C\\c3ccccc3)n2)c(O)c1", "TGI": "> 100 µM"}
{"molecule": "c1ccc(-c2cc(-c3cccs3)c(-c3cccs3)s2)cc1", "TGI": "> 100 µM"}
{"molecule": "COc1ccc(/C=C(\\C#N)c2ccc(OC)cc2)cc1", "TGI": "> 100 µM"}
{"molecule": "CCCCNc1nc2nc[nH]c2c(=O)[nH]1", "TGI": "> 100 µM"}
{"molecule": "O=c1[nH]cnc2c(COCCCO)c[nH]c12", "TGI": "> 100 µM"}
{"molecule": "OC1CCN(c2c3ccccc3nc3ccccc23)CC1", "TGI": "> 100 µM"}
{"molecule": "FC(F)(F)c1ccc(-c2cnc(Cl)nc2NC2CCCCCC2)cc1", "TGI": "> 100 µM"}
{"molecule": "N#Cc1nn(C(N)=O)c(N)c1C#N", "TGI": "> 100 µM"}
{"molecule": "CC1CSC(=S)N1C(=O)N1C(=S)SCC1C (centres undefined)", "TGI": "64.7 µM"}
{"molecule": "O=C1Cc2c([nH]c3ccccc23)C2(CC3CCCCN13)OCCO2 (centres undefined)", "TGI": "> 100 µM"}

---

# Test system: MCF7 breast
# procedure text: NCI tumour cell line growth inhibition, 48 h
recorded endpoint: TGI

{"compound": "COC1=CC(c2ccc[nH]2)=N/C1=C\\c1[nH]c(C)c(C(=O)CCCCC(=O)NCc2ccccc2)c1C", "val": "3.44 µM"}
{"compound": "O=C1Nc2ccccc2/C1=C/C(=N/c1nnc(-c2ccccc2)s1)c1ccccc1", "val": "11.3 µM"}
{"compound": "CCOC(=O)CCC(C(=O)OCC)n1nnc2ccc(Nc3c(C)[n+]([O-])c4ccc(Cl)cc4[n+]3[O-])cc21 (stereo not drawn)", "val": "50.4 µM"}
{"compound": "COc1cccc(C2c3cc4c(cc3OC(NNc3ccccc3)C2C)OCO4)c1O (stereo not drawn)", "val": "19.6 µM"}
{"compound": "CC(C)OC(=O)C1=C2c3ncccc3C(=O)N2[C@@H](Cl)[C@@H](Cl)[C@@H]1Cl", "val": "> 100 µM"}
{"compound": "NN/C(=N\\S(=O)(=O)c1cc2ccccc2o1)Nc1ccc(Cl)cc1", "val": "> 100 µM"}
{"compound": "CC(C)CCNc1ncnc2[nH]ncc12", "val": "> 100 µM"}
{"compound": "O=C(O)C1[C@@H](C(=O)O)C1(Br)CBr (stereo partly drawn)", "val": "> 100 µM"}
{"compound": "COC(=O)c1c(OC(C)=O)ccc2c1c1c(OC(C)=O)c3ccccc3c(OC(C)=O)c1n2C", "val": "> 100 µM"}
{"compound": "O=C(O)CN1CCNCCNCC1", "val": "> 100 µM"}
{"compound": "CCOC(=O)c1nc2cc(C(F)(F)F)ccc2nc1Nc1cc(OC)c(OC)c(OC)c1", "val": "> 100 µM"}
{"compound": "C/C(=N\\NC(=O)Nc1ccccc1Cl)c1ccc(O)cc1", "val": "> 100 µM"}
{"compound": "COc1ccc(NCc2cc(OC)c(OC)c(OC)c2)cc1", "val": "> 100 µM"}
{"compound": "CCOC(=O)/C=C(\\C(=O)OCC)n1ccc(=O)n(Cc2cnnn2COCCOC(C)=O)c1=O", "val": "21.4 µM"}
{"compound": "c1ccc(CNCCN2CCNCC2)nc1", "val": "> 100 µM"}
{"compound": "Cc1ccc(C2(c3ccc(C)cc3)SC(=C(C#N)C#N)c3ccccc32)cc1", "val": "> 100 µM"}
{"compound": "Cc1ccc(Nc2nc3nc[nH]c3c(=O)[nH]2)cc1CO", "val": "30.4 µM"}
{"compound": "O=C(CCCn1cnc([N+](=O)[O-])n1)NCCCn1ccnc1[N+](=O)[O-]", "val": "> 100 µM"}
{"compound": "C=Cc1ccccc1 (tested in a mixture with another compound)", "val": "> 75 µg/mL"}
{"compound": "O=C(O)c1cc2ccccc2c(N=Nc2ccc(S(=O)(=O)O)cc2)c1O", "val": "> 100 µM"}
{"compound": "COc1ccccc1N1C(=O)/C(=C\\c2cc(OC)c(OC)c(OC)c2)SC1c1ccccc1 (stereo not drawn)", "val": "> 100 µM"}
{"compound": "CCN1CCC(Oc2c(C#N)ncc3[nH]c4ncccc4c23)CC1", "val": "> 50 µM"}
{"compound": "CC1=CN(c2ccccc2)S2=C1c1sc3c(c1N2c1ccc(Br)cc1)CCCC3 (stereo not drawn)", "val": "> 100 µM"}
{"compound": "N=[N+]=NC1C(O)C(CO)OC1n1cnc2c(N)ncnc21 (stereo not drawn)", "val": "> 100 µM"}
{"compound": "NCCOc1ncccc1/C=C1\\c2ccccc2-c2ccc(F)cc21", "val": "1.68 µM"}
{"compound": "Cc1ccc(-c2c(C#N)[n+](=O)c3cc(Cl)c(Cl)cc3n2[O-])cc1", "val": "34.9 µM"}
{"compound": "CN(C)c1ccc(/C=C/c2nc3ccccc3s2)cc1", "val": "> 100 µM"}
{"compound": "N#C/C(=C\\c1cc(F)cc(F)c1)c1ccccn1", "val": "> 100 µM"}
{"compound": "O=C1Cc2c([nH]c3ccccc23)C2(CC3CCCCN13)OCCO2 (stereo not drawn)", "val": "> 100 µM"}
{"compound": "COP(C)(=O)C1=CCN(C(=O)OCC[Si](C)(C)C)CC1 (stereo not drawn)", "val": "> 100 µM"}
{"compound": "CCC(Cc1cnc2nc(N)nc(N)c2n1)c1ccc(C(=O)NC(CCC(=O)O)C(=O)O)cc1 (stereo not drawn)", "val": "> 100 µM"}
{"compound": "CS(=O)(=O)N1CC(CI)c2ccc(O)cc21 (stereo not drawn)", "val": "15.1 µM"}
{"compound": "CN(C)CCNC(=O)c1ccc(Cl)c2ccc(-c3ccccc3)nc12", "val": "16.8 µM"}
{"compound": "OC1CCN(c2c3ccccc3nc3ccccc23)CC1", "val": "10.3 µM"}
{"compound": "CCCCNc1nc2nc[nH]c2c(=O)[nH]1", "val": "> 100 µM"}
{"compound": "COc1ccc(C2CC(c3cc(Cl)c(C)cc3O)=NN2c2ccc(S(N)(=O)=O)cc2)cc1OC (stereo not drawn)", "val": "13.6 µM"}
{"compound": "O=C(Oc1cccc2cccnc12)c1cc2cc(CCl)ccc2oc1=O", "val": "11.4 µM"}
{"compound": "Cc1nnc(N)nc1C/C=C/C(Sc1ccc(Cl)cc1)c1ccccc1 (stereo not drawn)", "val": "> 34.7 µM"}
{"compound": "COc1ccc(/C=C/c2nnc(/C=C/c3ccc(OC)c(OC)c3)o2)cc1OC", "val": "> 100 µM"}
{"compound": "c1ccc(-c2cc(-c3cccs3)c(-c3cccs3)s2)cc1", "val": "41 µM"}
{"compound": "CC[C@@]1(O)C[C@H](OC2CC(N(C)C)C(OC3CC(O)C(OC4CC(O)C(O)C(C)O4)C(C)O3)C(C)O2)c2c(cc3c(c2O)C(=O)c2c(O)ccc(O)c2C3=O)[C@H]1C(=O)OC (stereo partly drawn)", "val": "0.959 µM"}
{"compound": "COc1ccc(/C=C(\\C#N)c2ccc(OC)cc2)cc1", "val": "> 100 µM"}
{"compound": "COc1cccc2c1-c1ccccc1[C@H](Nc1ccccc1)[C@@]2(C)O", "val": "17.2 µM"}
